Taken from the supplement of paper PMC6757056.

B1: library; a variant is named by its letters at N, in order (parent)
chain: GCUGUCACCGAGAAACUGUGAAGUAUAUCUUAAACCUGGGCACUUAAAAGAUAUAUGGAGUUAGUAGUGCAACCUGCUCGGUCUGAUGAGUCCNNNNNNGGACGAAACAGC

Variants of: B1
Assay: normalized RNA/DNA level without ligand (relative to sTRSVctl = 100) (log10 (% of sTRSVctl)); HEK293T; ligand: cyclic di-GMP (c-di-GMP-II aptamer); higher = less ribozyme self-cleavage, higher mRNA level
Details: reporter: mCherry (pCS4076), ligand present: no
Measured normalized RNA/DNA level without ligand (log10), listed per entry.
No unit in the answer, please; the number alone is enough.

See these solved cases before continuing.
sequence_data	observed_measurement
GCUGUCACCGAGAAACUGUGAAGUAUAUCUUAAACCUGGGCACUUAAAAGAUAUAUGGAGUUAGUAGUGCAACCUGCUCGGUCUGAUGAGUCCAUAAGGGGACGAAACAGC [AUAAGG]	1.54
GCUGUCACCGAGAAACUGUGAAGUAUAUCUUAAACCUGGGCACUUAAAAGAUAUAUGGAGUUAGUAGUGCAACCUGCUCGGUCUGAUGAGUCCUUUUUGGGACGAAACAGC [UUUUUG]	1.77
GCUGUCACCGAGAAACUGUGAAGUAUAUCUUAAACCUGGGCACUUAAAAGAUAUAUGGAGUUAGUAGUGCAACCUGCUCGGUCUGAUGAGUCCAUGCUCGGACGAAACAGC [AUGCUC]	1.74

Req: Suppose we examine the variant GCUGUCACCGAGAAACUGUGAAGUAUAUCUUAAACCUGGGCACUUAAAAGAUAUAUGGAGUUAGUAGUGCAACCUGCUCGGUCUGAUGAGUCCGAUCUGGGACGAAACAGC [GAUCUG] ; what normalized RNA/DNA level without ligand (log10) value has been reported?
Resp: 1.71

Req: And GCUGUCACCGAGAAACUGUGAAGUAUAUCUUAAACCUGGGCACUUAAAAGAUAUAUGGAGUUAGUAGUGCAACCUGCUCGGUCUGAUGAGUCCAAUACCGGACGAAACAGC [AAUACC] ?
Resp: 1.71

Req: And GCUGUCACCGAGAAACUGUGAAGUAUAUCUUAAACCUGGGCACUUAAAAGAUAUAUGGAGUUAGUAGUGCAACCUGCUCGGUCUGAUGAGUCCACGUUCGGACGAAACAGC [ACGUUC] ?
Resp: 1.61

Req: And GCUGUCACCGAGAAACUGUGAAGUAUAUCUUAAACCUGGGCACUUAAAAGAUAUAUGGAGUUAGUAGUGCAACCUGCUCGGUCUGAUGAGUCCAGUAGCGGACGAAACAGC [AGUAGC] ?
Resp: 1.62
